Tested on: Staphylococcus aureus
test-description: Antibacterial activity against Staphylococcus aureus ATCC 29213 after 16 to 18 hrs by CLSI method
Assay type: functional
recorded-metric: MIC (µg/mL)
The reply should contain only the number, in µg/mL.

Given the compound N#Cc1ccc(/C=C/c2nc3ccccc3c(=O)n2-c2cccc(OCc3cn(-c4cccc(C(=O)O)c4)nn3)c2)cc1 , what is its reported MIC?
4

Given the compound COc1ccc(Cn2cc(COc3cccc(-n4c(/C=C/c5ccc(C#N)cc5)nc5ccccc5c4=O)c3)nn2)cc1 , what is its reported MIC?
0.5

Given the compound O=c1c2ccccc2nc(/C=C/c2ccc(Cl)cc2)n1-c1cccc(OCc2cn(-c3cccc(F)c3)nn2)c1 , what is its reported MIC?
4

Given the compound N#Cc1ccc(/C=C/c2nc3ccccc3c(=O)n2-c2cccc(OCc3cn(-c4cccc(Cl)c4)nn3)c2)cc1 , what is its reported MIC?
0.5
